Molecular target: Human adrenergic α2B receptor (Homo sapiens)
Assay: Radioligand binding, adrenergic α2B (Protocol Group A)
Design: expressed in transfected cells; host or cells: CHO-K1
Settings: 0.03 μM compound, [3H]Rauwolscine, 0.03 µM
MEASUREMENT NAME: percent inhibition of specific binding, Adrenergic α2B

COMPOUND | MEASURED RESULT
Cc1ccc(C(F)Cn2c3c(c4cccnc42)C2CCCN2CC3)cn1 (single isomer, unassigned) [10b] | 16%

The compound listed as Cc1ccc2c(c1)c1c(n2CC(OC(=O)N2CCCC2)c2ccncc2)CCN(C)C1 (stereo not drawn) [compound 4] shows percent inhibition of specific binding, Adrenergic α2B equal to 78%

The compound listed as c1cncc(CCn2c3c(c4ccccc42)C2CCCN2CC3)c1 (single isomer, unassigned) [2b] shows percent inhibition of specific binding, Adrenergic α2B equal to 1%

----------
Biological target: Human adrenergic α1B receptor (Homo sapiens)
Sequence (P35368 whole entry): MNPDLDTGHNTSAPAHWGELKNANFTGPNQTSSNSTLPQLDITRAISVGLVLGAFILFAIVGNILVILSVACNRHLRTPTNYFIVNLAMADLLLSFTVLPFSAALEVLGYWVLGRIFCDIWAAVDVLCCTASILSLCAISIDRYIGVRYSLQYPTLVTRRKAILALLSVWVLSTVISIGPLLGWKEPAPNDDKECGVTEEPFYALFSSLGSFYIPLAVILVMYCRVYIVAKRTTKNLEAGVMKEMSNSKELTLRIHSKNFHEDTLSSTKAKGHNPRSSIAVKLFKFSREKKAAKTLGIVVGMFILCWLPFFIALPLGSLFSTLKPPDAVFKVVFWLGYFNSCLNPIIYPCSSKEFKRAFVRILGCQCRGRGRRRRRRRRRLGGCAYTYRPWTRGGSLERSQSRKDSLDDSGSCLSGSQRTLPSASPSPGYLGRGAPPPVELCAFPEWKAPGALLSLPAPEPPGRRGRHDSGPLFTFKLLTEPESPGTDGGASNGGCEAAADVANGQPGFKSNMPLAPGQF
Assay: Radioligand binding, adrenergic α1B (Protocol Group B)
Set-up: purchased Milipore (Millipore)
Details: 0.1 μM compound; Protocol Group B; 0.1 µM
Overview of recorded Percentage inhibition of ligand binding, Adrenergic α1B (0.1 μM) for various compounds
Express your answer in %, writing the number without its unit.

Case Cc1ccc2c(c1)c1c(n2CC(O)c2ccncc2)CCN2CCCC12 (single isomer, unassigned) [Compound No. 178b] , Human adrenergic α1B receptor (Homo sapiens), Percentage inhibition of ligand binding, Adrenergic α1B (0.1 μM) recorded as 69

----------
Molecular target: Human adrenergic α2B receptor (Homo sapiens, UniProt P18089)
Sequence (P18089 whole entry): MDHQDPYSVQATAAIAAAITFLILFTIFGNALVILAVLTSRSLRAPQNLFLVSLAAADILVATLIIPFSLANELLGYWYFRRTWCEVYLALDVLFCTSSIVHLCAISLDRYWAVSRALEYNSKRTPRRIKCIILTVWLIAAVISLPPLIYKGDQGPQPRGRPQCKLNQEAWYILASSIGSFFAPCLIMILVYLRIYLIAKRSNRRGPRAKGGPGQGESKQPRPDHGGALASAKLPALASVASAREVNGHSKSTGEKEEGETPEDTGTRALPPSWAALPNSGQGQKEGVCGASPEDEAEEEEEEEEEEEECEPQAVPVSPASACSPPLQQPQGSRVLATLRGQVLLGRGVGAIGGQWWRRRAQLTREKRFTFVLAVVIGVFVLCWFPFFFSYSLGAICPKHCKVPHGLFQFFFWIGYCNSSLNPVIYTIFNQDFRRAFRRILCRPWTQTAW
Test: Radioligand binding, adrenergic α2B (Protocol Group B)
Set-up: purchased Milipore (Millipore)
Settings: 0.1 μM compound; Protocol Group B; read-out: Percentage inhibition of ligand binding, Adrenergic α2B (0.1 μM)
MET means recorded inhibition at 0.1 µM is 90% or above; NOT MET means it is below 90%.

// below: answered compounds
COMPOUND | TARGET ENTITY | GROUP
OC(Cn1c2c(c3cc(F)ccc31)C1CCCN1CC2)c1ccncc1 (single isomer, unassigned) [18b] | Human adrenergic α2B receptor (Homo sapiens, UniProt P18089) | MET
Cc1ccc2c(c1)c1c(n2CC(O)c2cccnc2)C(O)CN(C)C1 (stereo not shown) [compound 24] | Human adrenergic α2B receptor (Homo sapiens, UniProt P18089) | NOT MET
Cc1cc(F)c2c(c1)c1c(n2CC(C)(O)c2ccncc2)CC2CCCN2C1 (single isomer, unassigned) [62a] | Human adrenergic α2B receptor (Homo sapiens, UniProt P18089) | NOT MET
Cc1ccc2c(c1)c1c(n2CC(O)c2ccc(C(=O)NC3CC3)nc2)CCN(C)C1 (stereo not shown) [compound 55] | Human adrenergic α2B receptor (Homo sapiens, UniProt P18089) | NOT MET
CCOC(Cn1c2c(c3cc(C)ccc31)CN(C)CC2)c1ccncc1 (single isomer, unassigned) [43a] | Human adrenergic α2B receptor (Homo sapiens, UniProt P18089) | MET

IN: Is the recorded value of inhibition at 0.1 µM equal to or greater than 90% for this compound? OCc1ccc2c(c1)c1c(n2CC(O)c2ccncc2)CCN2CCCC12 (stereo not shown) [compound 29]
OUT: NOT MET

IN: Is the recorded value of inhibition at 0.1 µM equal to or greater than 90% for this compound? CN1CCc2c(c3c(Cl)ccc(Cl)c3n2CC(O)c2cccnc2)C1 (stereo not shown) [Compound No. 17]
OUT: NOT MET
